# protocolDetails: Lipophilicity, log D of the compound by shake flask method using LC-MS analysis
# Type: physicochemical
# testContext: octanol/water

{"columns": ["substanceSmiles", "logD"],
 "data": [
  ["O=C1COc2ccc(CNC3CCN(CCN4C(=O)COc5ccc(F)cc54)CC3)nc2N1", 0.9],
  ["CN(C)S(=O)(=O)c1ccc2c(c1)N(CCN1CCC(NCc3ccc4c(n3)NC(=O)CO4)CC1)C(=O)CO2", 0.2],
  ["O=C1COc2ccc(CNC3CCN(CCN4C(=O)COc5ccc(C(=O)O)cc54)CC3)nc2N1", -1.6],
  ["CC(=O)c1ccc2c(c1)N(CCN1CCC(NCc3ccc4c(n3)NC(=O)CO4)CC1)C(=O)CO2", 0.4],
  ["O=C1COc2ccc(CNC3CCN(CCN4C(=O)COc5ccc(NC(=O)C(F)(F)F)cc54)CC3)nc2N1", 0.2]
]}
